The measured values listed here are drawn from patent US6100281A.

# chromatographic logP annotations
- measurement.description: logP by HPLC (EEC Directive 79/831 Annex V. A8, gradient method)
- Assay type: physicochemical
- study.conditions: acetonitrile/0.1% aqueous phosphoric acid
Number, no unit, nothing else.

Solved cases below.
{"columns": ["compound.structure", "chromatographic logP"],
 "data": [
  ["CN(C)S(=O)(=O)n1c(Oc2ccc(F)cc2)noc1=O", 2.58],
  ["CN(C)S(=O)(=O)n1c(Oc2ccccc2F)noc1=O", 2.55],
  ["CN(C)S(=O)(=O)n1c(Oc2ccc(Oc3ccccc3)cc2)noc1=O", 3.58]
]}

For this molecule ( "CN(C)S(=O)(=O)n1c(Oc2ccccc2)noc1=O" ), measured chromatographic logP is 2.48
